# ASSAYED_TARGET: HLA-A*0202 (human)
# SETUP_CONDITIONS: remark: other sources report otherwise
QUANTITY_KIND: IC50 (nM)

SLQCVSLHL [peptide 60.0191 (HuK2.170, 9-mer)]; 51

(A) SLHLLSNDMCV [peptide 1418.66 (HuK2.175.V11)]
(B) HLLSNDMCARV [peptide 1418.67 (HuK2.177.V11)]
Qu. Given the listed items, does A or B have the lesser reported IC50? Your choice should be expressed through its label.
Ans. A
